# tgt: T1, rat MASP-2cf CCP1-CCP2-SP (rat, UniProt Q9JJS8 298-685)
# T1 construct: range 298-685; Mw 42309 Da; also called rat MASP-2 catalytic fragment
# assay.protocol: SPR, target immobilised
Where no end group is shown, it is not given here.
Think of 700000 M⁻¹ s⁻¹ as a floor: if kon stands on it or above, it is Met; beneath it, Not met.

Reference set (10 entries):
EVO2b (designed binder, not fully specified; cysteine pairing not given here, Modified TFPI-D2 Kunitz domain; made as m1) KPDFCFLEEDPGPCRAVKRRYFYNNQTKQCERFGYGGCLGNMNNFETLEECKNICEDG: Not met
EVO2c (designed binder, not fully specified; cysteine pairing not given here, Modified TFPI-D2 Kunitz domain; made as m1) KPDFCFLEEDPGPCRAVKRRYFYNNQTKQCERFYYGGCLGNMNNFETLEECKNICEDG: Met
EVO224 (designed binder, not fully specified; cysteine pairing not given here, Modified TFPI-D2 Kunitz domain; made as m1) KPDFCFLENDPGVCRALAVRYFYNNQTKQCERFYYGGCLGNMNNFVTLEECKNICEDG: Met
EVO22b (designed binder, not fully specified; cysteine pairing not given here, Modified TFPI-D2 Kunitz domain; made as m1) KPDFCFLENDPGPCRALARRYFYNNQTKQCERFYYGGCLGNMNNFVTLEECKNICEDG: Met
EVO23 (designed binder, not fully specified; cysteine pairing not given here, Modified TFPI-D2 Kunitz domain; made as m1) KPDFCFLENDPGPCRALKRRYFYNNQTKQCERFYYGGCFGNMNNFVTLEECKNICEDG: Met
EVO2a (designed binder, not fully specified; cysteine pairing not given here, Modified TFPI-D2 Kunitz domain; made as m1) KPDFCFLENDPGPCRAVKRRYFYNNQTKQCERFKYGGCLGNMNNFETLEECKNICEDG: Not met
EVO21a (designed binder, not fully specified; cysteine pairing not given here, Modified TFPI-D2 Kunitz domain; made as m1) KPDFCFLENDPGPCRAVKRRYFYNNQTKQCERFGYGGCLGNMNNFVTLEECKNICEDG: Not met
EVO221 (designed binder, not fully specified; cysteine pairing not given here, Modified TFPI-D2 Kunitz domain; made as m1) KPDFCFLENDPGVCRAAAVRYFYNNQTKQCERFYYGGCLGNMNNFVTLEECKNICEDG: Not met
EVO25 (designed binder, not fully specified; cysteine pairing not given here, Modified TFPI-D2 Kunitz domain; made as m1) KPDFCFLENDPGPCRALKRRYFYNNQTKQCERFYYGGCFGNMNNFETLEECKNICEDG: Met
EVO213 (designed binder, Modified TFPI-D2 Kunitz domain; made as m1) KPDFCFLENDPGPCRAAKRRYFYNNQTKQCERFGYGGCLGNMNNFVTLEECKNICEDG: Not met

Exercise: Decide: is the reported value of kon for EVO214 (designed binder, not fully specified; ends and bridges not checked, Modified TFPI-D2 Kunitz domain; made as m1) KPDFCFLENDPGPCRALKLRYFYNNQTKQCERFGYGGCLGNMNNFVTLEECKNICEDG equal to or greater than 700000 M⁻¹ s⁻¹?
Solution: Not met

Exercise: Lookup EVO211 (designed binder, not fully specified; ends and bridges not checked, Modified TFPI-D2 Kunitz domain; made as m1) KPDFCFLENDPGWCRALKRRYFYNNQTKQCERFGYGGCLGNMNNFVTLEECKNICEDG
Solution: Met

Exercise: Ok, now EVO22a (designed binder, Modified TFPI-D2 Kunitz domain; made as m1) KPDFCFLENDPGPCRAAKRRYFYNNQTKQCERFYYGGCLGNMNNFVTLEECKNICEDG
Solution: Met

Exercise: Repeat for the following binder: EVO24 (designed binder, not fully specified; cysteine pairing not given here, Modified TFPI-D2 Kunitz domain; made as m1) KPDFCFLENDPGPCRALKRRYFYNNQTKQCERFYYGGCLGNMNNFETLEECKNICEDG
Solution: Met

Exercise: What do you get for EVO22 (designed binder, not fully specified; cysteine pairing not given here, Modified TFPI-D2 Kunitz domain; made as m1) KPDFCFLENDPGPCRALKRRYFYNNQTKQCERFYYGGCLGNMNNFVTLEECKNICEDG ?
Solution: Met

Exercise: And then EVO21 (designed binder, not fully specified; ends and bridges not checked, Modified TFPI-D2 Kunitz domain; made as m1) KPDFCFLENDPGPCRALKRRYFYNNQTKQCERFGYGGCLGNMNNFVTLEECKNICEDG , what is it?
Solution: Not met
